Below, each entry is listed alongside its reported DC50.
Biological target: IRAK4 (Homo sapiens, UniProt Q9NWZ3)
Construct: Degradation of IRAK4 in OCI-LY10 was quantitatively measured using Meso Scale Discovery technology; endogenous in cells; host or cells: OCI-LY10
Sequence (Q9NWZ3 whole entry): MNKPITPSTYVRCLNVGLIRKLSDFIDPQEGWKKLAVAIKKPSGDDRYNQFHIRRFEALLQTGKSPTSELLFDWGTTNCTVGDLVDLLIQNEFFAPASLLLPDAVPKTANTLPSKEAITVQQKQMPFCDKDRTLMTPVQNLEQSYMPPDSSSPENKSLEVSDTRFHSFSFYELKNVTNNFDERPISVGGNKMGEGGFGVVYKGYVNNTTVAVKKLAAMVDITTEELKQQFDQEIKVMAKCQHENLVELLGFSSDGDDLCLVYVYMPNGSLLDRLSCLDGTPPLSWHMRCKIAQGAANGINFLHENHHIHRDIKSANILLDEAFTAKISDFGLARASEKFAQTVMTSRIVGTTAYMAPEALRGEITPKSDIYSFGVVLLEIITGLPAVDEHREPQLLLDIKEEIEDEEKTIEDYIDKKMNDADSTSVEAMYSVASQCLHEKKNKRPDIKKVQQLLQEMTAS
Experiment: IRAK4 MSD Degradation in OCI-LY10
Format: cell-based
Conditions: OCI-LY10 cells, 24 hrs incubation, MSD; read-out: IRAK4 degradation in OCI-LY10 at 24 hrs: DC50

Previously resolved entries follow.
- compound: "C[C@H]1C[C@@H](OCC#Cc2cccc3c2n(C)c(=O)n3C2CCC(=O)NC2=O)CCN1C[C@H]1CC[C@H](n2cc(NC(=O)c3cnn4ccc(N5C[C@H]6C[C@@H]5CO6)nc34)c(C(F)F)n2)CC1 (some centres unmarked)"
  endpoint: "DC50"
  reportedValue: "> 200 nM"
- compound: "CN(CCCCNc1cccc2c1C(=O)N(C1CCC(=O)NC1=O)C2=O)C[C@H]1CC[C@H](n2cc3cc(NC(=O)c4cccc(C(F)(F)F)n4)c(C(C)(C)O)cc3n2)CC1 (some centres unmarked)"
  endpoint: "DC50"
  reportedValue: "< 10 nM"
- compound: "Cn1c(=O)n(C2CCC(=O)NC2=O)c2cccc(C#CCN3CC4COCC(C3)N4C[C@H]3CC[C@H](n4cc(NC(=O)c5cnn6ccc(N7C[C@H]8C[C@@H]7CO8)nc56)c(C(F)F)n4)CC3)c21 (some centres unmarked)"
  endpoint: "DC50"
  reportedValue: "> 200 nM"

Input: Could you share which DC50 value was measured for C[C@@H]1CN(C[C@H]2CC[C@H](n3cc(NC(=O)c4cnn5ccc(N6C[C@@H]7C[C@H]6CO7)nc45)c(C(F)F)n3)CC2)CC[C@H]1OCC#Cc1cccc2c1n(C)c(=O)n2C1CCC(=O)NC1=O (some centres unmarked) ?
Output: > 200 nM

Input: Proceed to CN(C[C@H]1CC[C@H](n2cc(NC(=O)c3cnn4ccc(N5CCCC5)nc34)c(C(F)F)n2)CC1)C1CCN(c2cccc3c2n(C)c(=O)n3C2CCC(=O)NC2=O)CC1(F)F (some centres unmarked)
Output: 10 to 100 nM

---

Target: IRAK4 (Homo sapiens, UniProt Q9NWZ3)
Construct: Degradation of IRAK4 in OCI-LY10 was quantitatively measured using Meso Scale Discovery technology; endogenous in cells; host or cells: OCI-LY10
Experiment: IRAK4 MSD Degradation in OCI-LY10
Type: cell-based
Settings: OCI-LY10 cells, 4 hrs incubation, MSD; read-out: IRAK4 degradation in OCI-LY10 at 4 hrs: DC50
endpoint: DC50

Use these answered entries as a reference point.
- compound: "O=C1CCC(c2cc(C#CCOC3CCN(C[C@H]4CC[C@H](n5cc(NC(=O)c6cnn7ccc(N8C[C@H]9C[C@@H]8CO9)nc67)c(C(F)F)n5)CC4)CC3)ccc2Cl)C(=O)N1 (stereo partly drawn) [I-257]"
  endpoint: "DC50"
  reportedValue: "> 0.2 µM"
- compound: "Cn1c(=O)n(C2CCC(=O)NC2=O)c2cccc(N3CCN(C4CCN(C[C@H]5CC[C@H](n6cc(NC(=O)c7cnn8ccc(N9C[C@H]%10C[C@@H]9CO%10)nc78)c(C(F)F)n6)CC5)CC4(F)F)CC3)c21 (stereo partly drawn) [I-701]"
  endpoint: "DC50"
  reportedValue: "> 0.2 µM"

Input: // lookup DC50 for Cn1c(=O)n(C2CCC(=O)NC2=O)c2cccc(C#CCN3CCN([C@H]4CC[C@@H](n5cc(NC(=O)c6cnn7ccc(N8C[C@H]9C[C@@H]8CO9)nc67)c(C(F)F)n5)CC4)CC3)c21 (stereo partly drawn) [I-421]
Output: 0.01 to 0.1 µM

---

Property: DC50; scope: individual compounds
Molecular target: IRAK4 (Homo sapiens, UniProt Q9NWZ3)
Construct: Degradation of IRAK4 in OCI-LY10 was quantitatively measured using Meso Scale Discovery technology; endogenous in cells; host or cells: OCI-LY10
Experiment: IRAK4 MSD Degradation in OCI-LY10
Assay type: cell-based
Conditions: OCI-LY10 cells, 24 hrs incubation, MSD; read-out: IRAK4 degradation in OCI-LY10 at 24 hrs: DC50

These solved cases illustrate the format of a correct answer.
- compound: "Cc1nn([C@H]2CC[C@H](CN3CCN(CC#Cc4cccc5c4n(C)c(=O)n5C4CCC(=O)NC4=O)CC3)CC2)cc1NC(=O)c1cnn2ccc(N3C[C@H]4C[C@@H]3CO4)nc12 (relative stereo)"
  reportedValue: "> 200 nM"
- compound: "Cc1ccc(-c2nn([C@H]3CC[C@H](CN4CCN(CC#Cc5cccc6c5n(C)c(=O)n6C5CCC(=O)NC5=O)CC4)CC3)cc2NC(=O)c2cnn3cccnc23)cc1 (some centres unmarked)"
  reportedValue: "10 to 100 nM"
- compound: "CO[C@@H]1CN(c2cccc3c2n(C)c(=O)n3C2CCC(=O)NC2=O)CC[C@H]1N(C)C[C@H]1CC[C@H](n2cc3cc(NC(=O)c4cccc(C(F)(F)F)n4)ccc3n2)CC1 (some centres unmarked)"
  reportedValue: "> 200 nM"

Input: Tell me the measured DC50 of Cn1c(=O)n(C2CCC(=O)NC2=O)c2cccc([C@H]3CCN(C[C@H]4CC[C@H](n5cc6cc(NC(=O)c7cccc(C(F)F)n7)ncc6n5)CC4)C[C@H]3F)c21 (some centres unmarked) , please.
Output: > 200 nM

Input: Repeat for the following compound: COc1cc2nn([C@H]3CC[C@H](CN4CCC(c5ccc6c(N7CCC(=O)NC7=O)cncc6c5)C(F)(F)C4)CC3)cc2cc1NC(=O)c1cccc(C(F)(F)F)n1 (some centres unmarked)
Output: > 200 nM

---

Target: IRAK4 (Homo sapiens)
Construct: Degradation of IRAK4 in OCI-LY10 was quantitatively measured using Meso Scale Discovery technology; endogenous in cells; host or cells: OCI-LY10
Assay: IRAK4 MSD Degradation in OCI-LY10
Type: cell-based
Details: OCI-LY10 cells, 24 hrs incubation, MSD; read-out: IRAK4 degradation in OCI-LY10 at 24 hrs: DC50
endpoint: DC50

- molecule: "Cn1c(=O)n(C2CCC(=O)NC2=O)c2cccc(C#CCN3CCN(C[C@H]4CC[C@H](n5cc(NC(=O)c6cnn7ccc(N8CCCCC8(C)C)nc67)c(C(F)F)n5)CC4)CC3)c21 (stereo partly shown)"
  DC50: "0.01 to 0.1 µM"

Input: Record request: DC50 value, item C[C@H]1CN(c2ccn3ncc(C(=O)Nc4cn([C@H]5CC[C@H](CN6CCN(CC#Cc7cccc8c7n(C)c(=O)n8C7CCC(=O)NC7=O)CC6)CC5)nc4C(F)F)c3n2)CCO1 (stereo partly shown)
Output: > 0.2 µM

Input: How about this molecule: Cn1c(=O)n(C2CCC(=O)NC2=O)c2cccc(N3CCC(CN4CCN(C[C@H]5CC[C@H](n6cc(NC(=O)c7cnn8ccc(N9C[C@@H]%10C[C@H]9CO%10)nc78)c(C(F)F)n6)CC5)CC4)CC3)c21 (stereo partly shown)
Output: > 0.2 µM

Input: What would you report for Cn1c(=O)n(C2CCC(=O)NC2=O)c2cccc(N3CC(COC4CN(C[C@H]5CC[C@H](n6cc(NC(=O)c7cnn8ccc(N9C[C@H]%10C[C@@H]9CO%10)nc78)c(C(F)F)n6)CC5)C4)C3)c21 (stereo partly shown) ?
Output: < 0.01 µM

Input: Moving on to Cn1c(=O)n(C2CCC(=O)NC2=O)c2cccc(C#CCCN3CCN(CC4CCC(n5cc(NC(=O)c6cnn7ccc(C8C[C@H]9C[C@@H]8CO9)nc67)c(C(F)F)n5)CC4)CC3)c21 (stereo partly shown)
Output: > 0.2 µM

Input: Now this one: Cn1c(=O)n(C2CCC(=O)NC2=O)c2cccc(C#CCC3CCN(C[C@H]4CC[C@H](n5cc(NC(=O)c6cnn7ccc(N8C[C@H]9CC8CO9)nc67)c(C(F)F)n5)CC4)CC3)c21 (stereo partly shown)
Output: > 0.2 µM

---

Molecular target: IRAK4 (Homo sapiens)
Construct: Degradation of IRAK4 in OCI-LY10 was quantitatively measured using Meso Scale Discovery technology; endogenous in cells; host or cells: OCI-LY10
Experiment: IRAK4 MSD Degradation in OCI-LY10
Format: cell-based
Settings: OCI-LY10 cells, 24 hrs incubation, MSD; read-out: IRAK4 degradation in OCI-LY10 at 24 hrs: DC50
endpoint: DC50

- molecule: "Cn1c(=O)n(C2CCC(=O)NC2=O)c2cccc([C@@H]3CCN(C[C@H]4CC[C@H](n5cc6cc(NC(=O)c7cccc(C#N)n7)ncc6n5)CC4)C[C@H]3F)c21 (some centres unmarked)"
  testSystem: "IRAK4 (Homo sapiens)"
  DC50: "< 10 nM"
- molecule: "CN(C[C@H]1CC[C@H](n2cc(NC(=O)c3cnn4cccnc34)c(C(F)F)n2)CC1)C1CCN(c2cccc3c2n(C)c(=O)n3C2CCC(=O)NC2=O)CC1O (some centres unmarked)"
  testSystem: "IRAK4 (Homo sapiens)"
  DC50: "> 200 nM"
- molecule: "CN(C[C@H]1CC[C@H](n2cc3cc(NC(=O)c4cccc(C(F)(F)F)n4)c(C(F)F)cc3n2)CC1)C1CCN(c2cccc3c2n(C)c(=O)n3C2CCC(=O)NC2=O)CC1F (some centres unmarked)"
  testSystem: "IRAK4 (Homo sapiens)"
  DC50: "> 200 nM"

Input: # get_value(readout='DC50', item= Cn1c(=O)n(C2CCC(=O)NC2=O)c2cccc(C#CCOC3C4CC3CN(C[C@H]3CC[C@H](n5cc(NC(=O)c6cnn7ccc(N8C[C@H]9C[C@@H]8CO9)nc67)c(C(F)F)n5)CC3)C4)c21 (some centres unmarked) )
Output: > 200 nM

Input: CN(C[C@H]1CC[C@H](n2cc(NC(=O)c3cnn4ccc(N5CCO[C@@H](C(F)F)C5)nc34)c(C(F)F)n2)CC1)C1CCN(c2cccc3c2n(C)c(=O)n3C2CCC(=O)NC2=O)CC1(F)F (some centres unmarked) , same question.
Output: > 200 nM
